B1: HDV Ribozyme (parent)
chain: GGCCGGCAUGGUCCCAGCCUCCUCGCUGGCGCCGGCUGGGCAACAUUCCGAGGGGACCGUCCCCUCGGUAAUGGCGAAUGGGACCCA

# Variants of: B1
# ASSAY COMMENT: self-cleavage, relative activity (ratio to wild type); higher = more cleavage; co-transcriptional
Could you label it T if measured self-cleavage is 0.3 or higher, and F otherwise?

mutation_descriptor="G38C G67U" assigned_label=T
mutation_descriptor="C63U U79A" assigned_label=T

Problem: Is it the case that C26G A87U has self-cleavage reaching or exceeding 0.3?
Solution: T

Problem: API: above_or_equal(metric=self-cleavage, cutoff=0.3) for item A16C G39U
Solution: F

Problem: Could you verify whether the entry C41U C85U shows self-cleavage of no less than 0.3?
Solution: T

Problem: self-cleavage >= 0.3 for G2C G68A ?
Solution: F

Problem: Quick check, self-cleavage >= 0.3? G25C U72A
Solution: F

Problem: API: above_or_equal(metric=self-cleavage, cutoff=0.3) for item A43U U47A
Solution: F

Problem: Exam item: decide whether the reported self-cleavage for A16G U46G is at least 0.3.
Solution: T

Problem: Test whether the variant A42G C44G records self-cleavage of 0.3 or higher.
Solution: F

Problem: For this variant, is measured self-cleavage 0.3 or higher? G2C G35C
Solution: F

Problem: Exam item: decide whether the reported self-cleavage for C62U C84G is at least 0.3.
Solution: T

Problem: Item C7A C21G with self-cleavage of 0.3 or above?
Solution: F

Problem: Kindly determine if self-cleavage recorded for A42U C66U is above or exactly 0.3.
Solution: T

Problem: Item U27G C58A with self-cleavage of 0.3 or above?
Solution: T

Problem: Entry C14A C49U : is its self-cleavage no less than 0.3?
Solution: T

Problem: Is it the case that G1A A78G has self-cleavage reaching or exceeding 0.3?
Solution: F

Problem: Form field: self-cleavage at least 0.3? Entry: G31U C63G
Solution: T

Problem: Tell me whether self-cleavage is at least 0.3 here: U69G C84U
Solution: T
